target: HCK (Homo sapiens, UniProt P08631); construct: purchased Reaction Biology Corporation (assay run at the CRO); experiment: Biochemical kinase assay (Reaction Biology, 33P ATP); details: 10 μM ATP
Sequence (P08631 whole entry): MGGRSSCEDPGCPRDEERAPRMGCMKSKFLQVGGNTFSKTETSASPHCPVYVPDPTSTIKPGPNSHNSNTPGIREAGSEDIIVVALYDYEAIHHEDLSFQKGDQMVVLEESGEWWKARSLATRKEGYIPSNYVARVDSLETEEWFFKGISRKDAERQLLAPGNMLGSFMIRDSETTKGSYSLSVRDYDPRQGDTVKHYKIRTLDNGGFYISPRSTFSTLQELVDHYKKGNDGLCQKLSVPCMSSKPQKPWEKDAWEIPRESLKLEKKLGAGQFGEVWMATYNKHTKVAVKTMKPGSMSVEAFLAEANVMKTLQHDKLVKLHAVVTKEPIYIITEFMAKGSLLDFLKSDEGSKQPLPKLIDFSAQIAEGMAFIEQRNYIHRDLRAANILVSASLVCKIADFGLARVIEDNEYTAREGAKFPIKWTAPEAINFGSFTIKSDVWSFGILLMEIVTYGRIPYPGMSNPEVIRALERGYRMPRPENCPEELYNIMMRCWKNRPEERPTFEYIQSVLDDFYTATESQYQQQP
Attribute measured: IC50 (nM)

Smiles record: C[C@H]1CNC(=O)c2cnn3cc4c(nc23)N(Cc2cc(F)ccc2O1)[C@@H]1CCC[C@@H]1O4
Units of measure: nM
Measurement: 1.95

Smiles record: C[C@H]1CNC(=O)c2cnn3cc4c(nc23)N(Cc2cc(F)cnc2O1)[C@@H]1CCC[C@@H]1O4
Units of measure: nM
Measurement: 2.71

###

target: RET (R813Q) (Homo sapiens, UniProt P07949, R813Q); construct: purchased Reaction Biology Corporation (assay run at the CRO); assay: Biochemical kinase assay (Reaction Biology, 33P ATP); settings: 10 μM ATP
Sequence (P07949 29-1114 R813Q): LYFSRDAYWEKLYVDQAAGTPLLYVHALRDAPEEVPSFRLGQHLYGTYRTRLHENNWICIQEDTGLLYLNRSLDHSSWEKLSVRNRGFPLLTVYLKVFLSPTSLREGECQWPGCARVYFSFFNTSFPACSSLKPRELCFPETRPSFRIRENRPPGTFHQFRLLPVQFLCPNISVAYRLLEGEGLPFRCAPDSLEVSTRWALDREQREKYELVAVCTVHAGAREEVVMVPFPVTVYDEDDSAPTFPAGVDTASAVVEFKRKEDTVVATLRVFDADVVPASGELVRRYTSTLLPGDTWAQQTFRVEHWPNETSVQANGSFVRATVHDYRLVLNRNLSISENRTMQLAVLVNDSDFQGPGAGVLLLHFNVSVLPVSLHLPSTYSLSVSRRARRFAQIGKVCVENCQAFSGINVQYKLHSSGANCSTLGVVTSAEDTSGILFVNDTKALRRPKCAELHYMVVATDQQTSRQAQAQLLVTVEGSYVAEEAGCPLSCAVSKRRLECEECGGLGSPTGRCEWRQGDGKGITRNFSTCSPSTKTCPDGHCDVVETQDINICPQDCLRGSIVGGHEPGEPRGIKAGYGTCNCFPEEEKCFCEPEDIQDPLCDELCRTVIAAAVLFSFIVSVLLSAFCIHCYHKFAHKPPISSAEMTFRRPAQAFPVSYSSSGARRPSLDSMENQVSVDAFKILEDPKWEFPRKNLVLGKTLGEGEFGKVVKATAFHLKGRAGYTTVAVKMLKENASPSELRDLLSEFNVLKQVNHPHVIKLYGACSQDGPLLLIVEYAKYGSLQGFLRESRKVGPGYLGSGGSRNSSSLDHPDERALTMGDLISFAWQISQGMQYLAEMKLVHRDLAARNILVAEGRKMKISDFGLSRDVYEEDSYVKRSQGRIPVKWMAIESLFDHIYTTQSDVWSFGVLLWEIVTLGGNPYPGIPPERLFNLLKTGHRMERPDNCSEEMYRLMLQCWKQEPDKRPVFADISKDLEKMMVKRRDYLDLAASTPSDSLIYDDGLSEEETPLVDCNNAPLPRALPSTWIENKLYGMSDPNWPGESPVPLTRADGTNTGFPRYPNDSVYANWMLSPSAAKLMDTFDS
Attribute measured: IC50 (nM)

1: C[C@H]1CNC(=O)c2cnn3cc4c(nc23)N(Cc2cc(F)cnc2O1)[C@@H]1CCC[C@@H]1O4
2: C[C@H]1CNC(=O)c2cnn3cc4c(nc23)N(Cc2cc(F)ccc2O1)[C@@H]1CCC[C@@H]1O4
Lookup: Please indicate which has the smaller reported IC50: 1 , or 2 . Write the label of whichever entry you select.
Found: 2
(2: 0.341 nM, 1: 2.46 nM)

###

tested on: KM12 cell (TPM3-TRKA); experiment: Cell proliferation assay (CellTiter-Glo, 72 hours); format: cell-based, human; conditions: Homo sapiens, KM12, anti-cell proliferation
Measured IC50 by item
Just the number in nM, nothing appended.

Compound: C[C@H]1CNC(=O)c2cnn3cc4c(nc23)N(Cc2cc(F)cnc2O1)[C@H]1CC[C@H]1O4 [Compound 9]
Units of measure: nM
IC50: 3.3

Compound: C[C@@H]1CNC(=O)c2cnn3cc4c(nc23)N(Cc2cc(F)cnc2O1)[C@H]1CCC[C@H]1O4 [Compound 44]
Units of measure: nM
IC50: 668

Form: item O=C1NC[C@H](O)COc2ncc(F)cc2CN2c3nc4c1cnn4cc3O[C@H]1CCC[C@H]12 [Compound 32] ; test system KM12 cell (TPM3-TRKA); IC50: 20.2

Form: item O=C1N[C@H](C(F)(F)F)COc2ncc(F)cc2CN2c3nc4c1cnn4cc3O[C@H]1CCC[C@H]12 [Compound 48] ; test system KM12 cell (TPM3-TRKA); IC50: 5.9

Form: item C[C@H]1CCNC(=O)c2cnn3cc4c(nc23)N(Cc2cc(F)cnc2O1)[C@@H]1CCC[C@@H]1O4 [Compound 15] ; test system KM12 cell (TPM3-TRKA); IC50: 5.1

Form: item C[C@H]1CNC(=O)c2cnn3cc4c(nc23)N(Cc2cc(F)cc(F)c2O1)[C@@H]1CCC[C@@H]1O4 [Compound 3] ; test system KM12 cell (TPM3-TRKA); IC50: 4.2

###

target: BaF3 EML4-ALK (Homo sapiens); construct: The EML4-ALK gene (variant 1) was synthesized at GenScript and cloned into pCDH-CMV-MCS-EF1-Puro plasmid (System Biosciences, Inc); fused on or other part: Q9HC35 (Echinoderm microtubule-associated protein-like 4); experiment: Cell proliferation assay (CellTiter-Glo, 72 hours); format: cell-based; details: anti-cell proliferation
Sequence (Q9UM73 whole entry, change not shown, the tested form may be a part): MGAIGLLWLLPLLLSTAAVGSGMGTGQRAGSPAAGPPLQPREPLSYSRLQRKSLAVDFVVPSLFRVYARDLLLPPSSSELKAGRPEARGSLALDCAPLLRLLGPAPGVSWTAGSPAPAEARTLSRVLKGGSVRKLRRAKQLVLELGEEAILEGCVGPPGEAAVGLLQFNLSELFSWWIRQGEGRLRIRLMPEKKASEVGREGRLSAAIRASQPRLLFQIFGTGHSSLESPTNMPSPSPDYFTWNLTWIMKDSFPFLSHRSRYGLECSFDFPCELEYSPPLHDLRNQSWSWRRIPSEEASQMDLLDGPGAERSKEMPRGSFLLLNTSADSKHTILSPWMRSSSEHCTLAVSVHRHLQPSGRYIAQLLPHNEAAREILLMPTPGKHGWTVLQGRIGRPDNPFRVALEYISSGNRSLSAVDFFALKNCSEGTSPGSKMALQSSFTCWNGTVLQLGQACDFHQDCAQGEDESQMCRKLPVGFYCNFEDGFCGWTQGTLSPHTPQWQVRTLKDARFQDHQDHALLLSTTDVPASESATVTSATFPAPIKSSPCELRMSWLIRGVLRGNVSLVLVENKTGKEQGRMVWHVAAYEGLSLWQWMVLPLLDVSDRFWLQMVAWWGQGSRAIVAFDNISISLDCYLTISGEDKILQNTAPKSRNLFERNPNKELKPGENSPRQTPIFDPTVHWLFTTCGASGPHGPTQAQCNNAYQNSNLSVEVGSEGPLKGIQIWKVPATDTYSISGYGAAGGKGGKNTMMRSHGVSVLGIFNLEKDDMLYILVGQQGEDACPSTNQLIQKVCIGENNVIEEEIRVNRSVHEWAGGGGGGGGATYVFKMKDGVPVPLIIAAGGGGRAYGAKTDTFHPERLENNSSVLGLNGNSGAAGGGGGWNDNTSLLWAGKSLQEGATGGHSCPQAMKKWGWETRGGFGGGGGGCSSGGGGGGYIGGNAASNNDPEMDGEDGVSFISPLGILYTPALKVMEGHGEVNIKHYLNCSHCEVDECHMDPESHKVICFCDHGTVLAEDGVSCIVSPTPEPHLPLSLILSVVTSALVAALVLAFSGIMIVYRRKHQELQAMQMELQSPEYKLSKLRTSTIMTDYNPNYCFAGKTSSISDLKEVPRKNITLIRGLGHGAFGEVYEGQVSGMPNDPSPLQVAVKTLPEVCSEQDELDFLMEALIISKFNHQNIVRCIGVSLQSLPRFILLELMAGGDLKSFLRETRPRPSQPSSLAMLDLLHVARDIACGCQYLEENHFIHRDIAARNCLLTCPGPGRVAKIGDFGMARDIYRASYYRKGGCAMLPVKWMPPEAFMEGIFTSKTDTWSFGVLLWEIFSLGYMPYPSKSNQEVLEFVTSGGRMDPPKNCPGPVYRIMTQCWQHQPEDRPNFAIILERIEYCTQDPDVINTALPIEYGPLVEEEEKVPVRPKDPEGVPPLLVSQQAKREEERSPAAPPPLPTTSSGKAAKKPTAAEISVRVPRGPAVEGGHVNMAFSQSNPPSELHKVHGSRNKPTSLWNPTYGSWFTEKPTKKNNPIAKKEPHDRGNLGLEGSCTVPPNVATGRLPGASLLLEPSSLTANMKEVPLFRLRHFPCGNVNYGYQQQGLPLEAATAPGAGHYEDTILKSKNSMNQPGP
Attribute measured: GI50 (µM)

A: O=C1N[C@H](C(F)F)COc2ncc(F)cc2CN2c3nc4c1cnn4cc3O[C@H]1CCC[C@H]12 [Compound 47]
B: C[C@H]1CNC(=O)c2cnn3cc4c(nc23)N(Cc2cc(F)cc(F)c2O1)[C@@H]1CCC[C@@H]1O4 [Compound 3]
Lookup: API: POST /compare with A and B ; response names the item with higher GI50. Write the label of whichever entry you select.
Found: B

FYI, the data here is from patent US10745416B2.
